- subjectOfTest: recombinant human BMX protein (hBMX) (Homo sapiens)
- Construct: Crystallization, data collection, and structure determination of BMX catalytic domain in; made in house; host or cells: Sf-9 insect cells
- protocolSummary: Differential scanning fluorimetry (DSF)
- Format: binding
- particulars: 100 μM compound; apo-BMX Tm 51.8-52.2 °C
// returns False unless Average Tm of BMX with compound is strictly below 60 °C, in which case True

Cc1ccc(-n2c(=O)ccc3cnc4ccc(-c5ccc(NS(C)(=O)=O)cc5)cc4c32)cc1NCC=CC#N (mixture of isomers) [JS12]
True

[Q] Report whether reported Average Tm of BMX with compound is lower than 60 °C (strictly) for C=CC(=O)Nc1cccc(-n2c(=O)ccc3cnc4cc(N5CCN(S(C)(=O)=O)CC5)ccc4c32)c1 [JS27]
[A] False

----------
- subjectOfTest: recombinant human BMX protein (hBMX) (Homo sapiens, UniProt P51813)
- Construct: Crystallization, data collection, and structure determination of BMX catalytic domain in; made in house; host or cells: Sf-9 insect cells
- Sequence (P51813 417-675 limits assumed): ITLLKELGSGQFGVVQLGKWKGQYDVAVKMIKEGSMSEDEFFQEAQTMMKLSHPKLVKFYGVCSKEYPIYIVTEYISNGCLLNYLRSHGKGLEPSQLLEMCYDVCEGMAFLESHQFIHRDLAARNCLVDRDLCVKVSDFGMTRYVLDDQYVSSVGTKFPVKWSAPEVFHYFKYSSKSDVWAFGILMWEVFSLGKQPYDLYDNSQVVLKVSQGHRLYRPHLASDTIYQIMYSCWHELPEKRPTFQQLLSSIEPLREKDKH
- protocolSummary: Differential scanning fluorimetry (DSF)
- Format: binding
- particulars: 100 μM compound, versus apo-BMX
readoutType: ΔTm

C=CC(=O)Nc1cc(-n2c(=O)ccc3cnc4ccc(N5CCN(S(C)(=O)=O)CC5)cc4c32)ccc1C
8.79±0.21 °C
C=CC(=O)Nc1cc(-n2c(=O)ccc3cnc4ccc(-c5ccncc5)cc4c32)ccc1C
7.62±0.01 °C
C=CC(=O)Nc1cc(-n2c(=O)ccc3cnc4ccc(N5CCC(N(C)C)CC5)cc4c32)ccc1C
8.66±0.11 °C

Switching to the query record.
[Q] Request the reported ΔTm associated with CC(C)=CC(=O)Nc1cc(-n2c(=O)ccc3cnc4ccc(-c5ccc(NS(C)(=O)=O)cc5)cc4c32)ccc1C
[A] 0.34±0.11 °C

----------
- subjectOfTest: NanoLuc®-BMX fusion vector in HEK293 cells (Homo sapiens)
- Sequence (P51813 whole entry, the tested form may be a part): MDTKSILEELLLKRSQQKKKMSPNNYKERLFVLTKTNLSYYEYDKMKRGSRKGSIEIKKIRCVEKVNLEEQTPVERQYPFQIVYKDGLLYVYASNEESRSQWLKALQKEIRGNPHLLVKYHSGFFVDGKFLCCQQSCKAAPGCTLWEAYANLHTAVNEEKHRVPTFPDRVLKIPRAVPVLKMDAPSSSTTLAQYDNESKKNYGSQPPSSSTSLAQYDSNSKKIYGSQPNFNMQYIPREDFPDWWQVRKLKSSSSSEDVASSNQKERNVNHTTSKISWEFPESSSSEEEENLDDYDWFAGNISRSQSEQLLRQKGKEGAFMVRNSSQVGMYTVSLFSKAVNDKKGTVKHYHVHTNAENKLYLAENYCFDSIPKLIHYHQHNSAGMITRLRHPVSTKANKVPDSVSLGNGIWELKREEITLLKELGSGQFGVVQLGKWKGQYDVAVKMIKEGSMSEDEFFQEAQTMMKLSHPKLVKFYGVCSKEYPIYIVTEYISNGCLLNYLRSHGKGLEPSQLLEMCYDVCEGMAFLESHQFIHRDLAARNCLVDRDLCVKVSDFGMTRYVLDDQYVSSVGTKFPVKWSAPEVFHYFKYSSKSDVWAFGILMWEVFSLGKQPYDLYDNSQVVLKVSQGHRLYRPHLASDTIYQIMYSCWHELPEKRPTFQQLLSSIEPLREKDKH
- protocolSummary: NanoBRET TE intracellular kinase assay
- particulars: HEK293 transiently transfected with BMX; 1 h; duplicate, mean ± S.D.; read-out: intracellular target engagement IC50
readoutType: pIC50
Note on pIC50: it is the negative log10 of concentration, concentration in mol/L.

[Q] Request the reported pIC50 associated with C=CC(=O)Nc1cc(-n2c(=O)ccc3cnc4ccc(-c5ccc(NS(C)(=O)=O)cc5)cc4c32)ccc1C [BMX-IN-1, reference compound]
[A] 6.31

----------
- subjectOfTest: recombinant human BMX protein (hBMX) (Homo sapiens, UniProt P51813)
- Construct: Crystallization, data collection, and structure determination of BMX catalytic domain in; made in house; host or cells: Sf-9 insect cells
- protocolSummary: Differential scanning fluorimetry (DSF)
- Format: binding
- particulars: 100 μM compound; apo-BMX Tm 51.8-52.2 °C
Output t for Average Tm of BMX with compound not less than 60 °C; output f otherwise.

C=CC(=O)Nc1cc(-n2c(=O)ccc3cnc4cc(-c5ccc(NS(C)(=O)=O)cc5)ccc4c32)ccc1C [JS24]
t
C=CC(=O)Nc1cc(-n2c(=O)ccc3cnc4ccc(-c5ccc(NS(C)(=O)=O)cc5)cc4c32)ccc1OC [JS9E]
f

Field: next compound
[Q] # check: Average Tm of BMX with compound of C=CC(=O)Nc1ccc(C)c(-n2c(=O)ccc3cnc4ccc(-c5ccc(NS(C)(=O)=O)cc5)cc4c32)c1 [JS9C] is greater than or equal to 60 °C
[A] f
